- measuredTarget: T1, recombinant human MSLN (human, UniProt Q13421 296-580, limits assumed)
- T1 construct: It was fixed to an anti-Penta His (HIS1K) sensor, so a His tag is implied; also called recombinant MSLN; mesothelin
- T1 sequence (Q13421 other isoform, or with tags, fused parts or gaps limits assumed): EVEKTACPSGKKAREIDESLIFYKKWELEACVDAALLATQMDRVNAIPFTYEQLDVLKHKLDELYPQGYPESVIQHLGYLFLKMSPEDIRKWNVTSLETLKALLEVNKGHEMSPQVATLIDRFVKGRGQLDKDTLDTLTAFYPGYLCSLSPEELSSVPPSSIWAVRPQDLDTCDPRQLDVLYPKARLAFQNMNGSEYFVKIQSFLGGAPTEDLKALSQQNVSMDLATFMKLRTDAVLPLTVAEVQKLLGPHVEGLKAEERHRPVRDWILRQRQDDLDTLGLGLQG
- experimentNotes: BLI (Octet), MSLN on anti-Penta His sensor, antibody 3.125-50 nM
readout: koff (s⁻¹)
Answers are plain numbers, in s⁻¹.

Prompt line: Item HMI323VL-1/HMI323VH-3 IgG1 (antibody, V domains shown, also called humanized MI323 IgG1) VH: EVQLVQSGAEVKKPGTSVKVSCKASGYSFTSYFIQWVRQAPGQGLEWIGWIFPGSGNTKYSQKFQGRVTITRDTSTSTAYMELSSLRSEDTAVYYCARSGGYQYYFDYWGQGTLVTVSS VL: DIQMTQSPSSLSASVGDRVTITCRASQDVSTAVAWYQQKPGKAPKLLIYSASYRYPGVPSRFSGSGSGTDFTLTISSLQPEDFATYYCQQHYSTPWTFGGGTKLEIKR has what recorded koff?
Response line: 2.75e-05

Sourced from patent US20200262928A1
